The measurements presented in this section are drawn from patent US10669272B2.

Molecular target: human DGKα (Homo sapiens)
Construct: TVMV protease cleavage site (C); Hexa-His (C); made in house; host or cells: Sf9 insect cells (baculovirus, Bac-to-Bac)
Sequence (P23743 with tags, fused parts or gaps): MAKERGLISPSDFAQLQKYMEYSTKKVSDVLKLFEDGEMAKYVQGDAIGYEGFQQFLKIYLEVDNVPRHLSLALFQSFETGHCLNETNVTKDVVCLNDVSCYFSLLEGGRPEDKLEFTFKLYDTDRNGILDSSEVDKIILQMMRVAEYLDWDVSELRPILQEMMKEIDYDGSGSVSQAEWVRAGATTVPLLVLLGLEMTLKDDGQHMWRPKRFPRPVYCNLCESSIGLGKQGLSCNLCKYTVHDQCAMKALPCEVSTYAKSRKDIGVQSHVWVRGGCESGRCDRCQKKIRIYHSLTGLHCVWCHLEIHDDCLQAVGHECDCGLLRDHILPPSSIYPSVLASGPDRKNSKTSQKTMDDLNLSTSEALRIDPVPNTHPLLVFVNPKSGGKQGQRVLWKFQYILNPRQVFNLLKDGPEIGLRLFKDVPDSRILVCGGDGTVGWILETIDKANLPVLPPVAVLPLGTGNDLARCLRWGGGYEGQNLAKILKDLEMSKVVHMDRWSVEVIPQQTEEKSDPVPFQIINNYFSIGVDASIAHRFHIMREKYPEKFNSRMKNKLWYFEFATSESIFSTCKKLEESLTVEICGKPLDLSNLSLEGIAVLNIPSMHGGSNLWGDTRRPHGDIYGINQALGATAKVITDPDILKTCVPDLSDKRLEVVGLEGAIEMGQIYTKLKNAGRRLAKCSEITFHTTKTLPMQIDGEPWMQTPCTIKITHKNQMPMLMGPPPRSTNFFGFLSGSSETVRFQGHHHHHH
Test: DGKα LIPGLO assay (extruded liposome substrate), in vitro DGK inhibition
Assay type: biochemical
Settings: DGKα liposome (LIPGLO) assay; read-out: DGKa LIPGLO IC50
Give measured IC50 for each item. Keep answers brief.
Please state the figure in µM; there is no need to write the unit.

Consider the compound Cc1cccc(C(C)N2CCN(c3c(C#N)c(=O)n(C)c4ccc(C#N)nc34)C[C@H]2C)n1 (stereo partly drawn) [Example 967] . State its measured IC50.
2.8

Consider the compound Cc1ccc(C(c2ccc(Cl)cc2)N2CCN(c3c(C#N)c(=O)n(C)c4ccc(C#N)nc34)C[C@H]2C)cc1 (single isomer, unassigned) [Example 945] . State its measured IC50.
9.8

Consider the compound C[C@@H]1CN(c2c(C#N)c(=O)n(C)c3ccc(C#N)nc23)[C@@H](C)CN1C(c1ccc(F)cc1)c1ccc(C#N)cc1 (single isomer, unassigned) [Example 823] . State its measured IC50.
18

Consider the compound C[C@@H]1CN(c2cc(=O)n(C)c3ccc(C#N)nc23)[C@@H](C)CN1C(c1ccc(F)cc1)c1nc(C2CC2)nn1C (single isomer, unassigned) [Example 768] . State its measured IC50.
14

Consider the compound CCc1ccc(C(c2ccc(F)cc2)N2C[C@H](C)N(c3c(C#N)c(=O)n(C)c4ccc(C#N)nc34)C[C@H]2C)cc1 (single isomer, unassigned) [Example 812] . State its measured IC50.
17

Consider the compound "Cc1c(F)cccc1CN1CCN(c2c(C#N)c(=O)n(C)c3ccc(C#N)nc23)C[C@H]1C" . State its measured IC50.
1.8

Consider the compound C[C@@H]1CN(c2cc(=O)n(C)c3ccc(C#N)nc23)[C@@H](C)CN1C(c1ccc(F)cc1)c1csc(C2CC2)n1 (single isomer, unassigned) [Example 723] . State its measured IC50.
0.31

Consider the compound CC(c1ccccn1)N1CCN(c2c(C#N)c(=O)n(C)c3ccc(C#N)nc23)C[C@H]1C (single isomer, unassigned) [Example 965] . State its measured IC50.
0.96

Consider the compound COC(=O)c1cccc(C(C)N2CCN(c3c(C#N)c(=O)n(C)c4ccc(C#N)nc34)C[C@H]2C)c1 (single isomer, unassigned) [Example 983] . State its measured IC50.
3.5

Consider the compound C[C@@H]1CN(c2cc(=O)n(C)c3ccc(C#N)nc23)[C@@H](C)CN1C(c1ccc(F)cc1)c1nnc(C2CC2)[nH]1 (single isomer, unassigned) [Example 767] . State its measured IC50.
0.44

Consider the compound Cc1ccc(C(c2ccc(Cl)cn2)N2CCN(c3c(C#N)c(=O)n(C)c4ccc(C#N)nc34)C[C@H]2C)cc1 (single isomer, unassigned) [Example 937] . State its measured IC50.
0.34

Consider the compound Cc1ccc(C(c2cccc(F)c2)N2CCN(c3c(C#N)c(=O)n(C)c4ccc(C#N)nc34)C[C@H]2C)nc1 (single isomer, unassigned) [Example 923] . State its measured IC50.
5.5
